Where these numbers come from: paper PMC8708872

Target Or Test System: CYP2C9 (Homo sapiens, UniProt P11712)
Sequence (P11712 whole entry): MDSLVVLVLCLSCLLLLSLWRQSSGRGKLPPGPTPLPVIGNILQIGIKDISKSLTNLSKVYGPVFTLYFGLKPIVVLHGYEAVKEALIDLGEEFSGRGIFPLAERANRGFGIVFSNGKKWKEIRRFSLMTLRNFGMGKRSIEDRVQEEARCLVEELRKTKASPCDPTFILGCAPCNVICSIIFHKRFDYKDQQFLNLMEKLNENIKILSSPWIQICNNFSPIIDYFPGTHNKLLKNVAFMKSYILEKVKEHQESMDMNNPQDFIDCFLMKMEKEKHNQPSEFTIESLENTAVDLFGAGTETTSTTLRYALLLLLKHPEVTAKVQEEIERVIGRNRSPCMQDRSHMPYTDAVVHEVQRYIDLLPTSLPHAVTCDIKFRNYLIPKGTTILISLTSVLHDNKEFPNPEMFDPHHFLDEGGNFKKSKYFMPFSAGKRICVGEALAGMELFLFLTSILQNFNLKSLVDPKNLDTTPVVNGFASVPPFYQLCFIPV

{"Molecule Smiles": "C#Cc1cn([C@@H]2S[C@H](CO)[C@@H](O)[C@H]2O)c2ncnc(N)c12", "Target Or Test System": "CYP2C9 (Homo sapiens, UniProt P11712)", "IC50": "> 20 µM"}

====

Target Or Test System: CYP2C9 (Homo sapiens, UniProt P11712)
Construct: Human liver microsomes (0.25 mg/mL); from tissue; host or cells: human liver microsomes
Experimental Details: CYP inhibition assay
Format: in vitro ADME
Reported Conditions: human, human liver microsomes, pH 7.4, probe Diclofenac 10 μM (in a cocktail of five substrates); inhibitor 0.1 μM; read-out: Percentage of enzyme remaining after inhibition, CYP2C9

{"Molecule": "CC(=O)N1CCN(c2ccc(OCC3COC(Cn4ccnc4)(c4ccc(Cl)cc4Cl)O3)cc2)CC1 (stereo not shown) [Ketoconazole, reference compound]", "Target Or Test System": "CYP2C9 (Homo sapiens, UniProt P11712)", "remaining at 15 min, 0.1 μM, %": 93.6}

====

{"Molecule": "Nc1ncnc2c1c(-c1ccccc1)cn2[C@@H]1S[C@H](CO)[C@@H](O)[C@H]1O [Compound 1d]", "melting point": "102 to 104 °C"}
{"Molecule": "Nc1ncnc2c1c(-c1ccc(N3CCS(=O)(=O)CC3)cc1)cn2C1SC(CO)C(O)C1O (stereo not shown) [Compound 1e]", "melting point": "188 to 192 °C"}
{"Molecule": "Nc1ncnc2c1c(-c1cccs1)cn2[C@@H]1S[C@H](CO)[C@@H](O)[C@H]1O [Compound 1b]", "melting point": "166 to 172 °C"}
{"Molecule": "CC(C)(C)C#Cc1cn([C@@H]2S[C@H](CO)[C@@H](O)[C@H]2O)c2ncnc(N)c12 [Compound 1j]", "melting point": "144 to 146 °C"}
{"Molecule": "C=Cc1cn([C@@H]2S[C@H](CO)[C@@H](O)[C@H]2O)c2ncnc(N)c12 [Compound 1c]", "melting point": "110 to 112 °C"}
{"Molecule": "Nc1ncnc2c1c(C#CC1CC1)cn2[C@@H]1S[C@H](CO)[C@@H](O)[C@H]1O [Compound 1k]", "melting point": "166 to 168 °C"}
{"Molecule": "CCS(=O)(=O)Nc1ccc(-c2cn(C3SC(CO)C(O)C3O)c3ncnc(N)c23)cc1 (stereo not shown) [Compound 1f]", "melting point": "127 to 132 °C"}
{"Molecule": "CC#Cc1cn([C@@H]2S[C@H](CO)[C@@H](O)[C@H]2O)c2ncnc(N)c12 [Compound 1h]", "melting point": "190 to 192 °C"}
{"Molecule": "CCC#Cc1cn([C@@H]2S[C@H](CO)[C@@H](O)[C@H]2O)c2ncnc(N)c12 [Compound 1i]", "melting point": "161 to 162 °C"}
{"Molecule": "Nc1ncnc2c1c(-c1ccco1)cn2[C@@H]1S[C@H](CO)[C@@H](O)[C@H]1O [Compound 1a]", "melting point": "197 to 199 °C"}

====

What follows is a record of pKi for UniProtKB Q9Y463.
Sequence (Q9Y463 whole entry): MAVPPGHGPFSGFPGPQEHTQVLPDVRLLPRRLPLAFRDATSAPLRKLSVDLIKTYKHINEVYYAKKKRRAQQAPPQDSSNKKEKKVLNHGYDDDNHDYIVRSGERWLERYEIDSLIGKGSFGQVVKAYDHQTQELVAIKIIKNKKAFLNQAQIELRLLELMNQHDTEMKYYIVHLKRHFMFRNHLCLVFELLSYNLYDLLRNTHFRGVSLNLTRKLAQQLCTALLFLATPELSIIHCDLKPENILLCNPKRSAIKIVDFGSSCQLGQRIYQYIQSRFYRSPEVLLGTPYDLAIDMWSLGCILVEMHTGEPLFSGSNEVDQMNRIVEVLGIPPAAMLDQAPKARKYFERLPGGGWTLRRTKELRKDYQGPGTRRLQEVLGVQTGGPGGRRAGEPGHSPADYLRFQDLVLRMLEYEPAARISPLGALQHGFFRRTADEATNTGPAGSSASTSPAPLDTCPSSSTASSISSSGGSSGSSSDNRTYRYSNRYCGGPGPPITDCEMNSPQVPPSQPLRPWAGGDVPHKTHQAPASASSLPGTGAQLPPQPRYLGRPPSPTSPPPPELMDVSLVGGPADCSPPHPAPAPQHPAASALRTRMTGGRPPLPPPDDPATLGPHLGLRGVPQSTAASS
pKi: −log10 of the molar value.

{"Molecule": "C#Cc1cn([C@@H]2S[C@H](CO)[C@@H](O)[C@H]2O)c2ncnc(N)c12", "Target Or Test System": "UniProtKB Q9Y463", "pKi": 7.48}
{"Molecule": "C=Cc1cn([C@@H]2S[C@H](CO)[C@@H](O)[C@H]2O)c2ncnc(N)c12", "Target Or Test System": "UniProtKB Q9Y463", "pKi": 7.07}
{"Molecule": "Cc1nccc(-c2cn(Cc3ccccc3)c3cnccc23)n1 [AZ Dyrk1B 33, reference compound]", "Target Or Test System": "UniProtKB Q9Y463", "pKi": 7.30}
{"Molecule": "Nc1ncnc2c1c(-c1ccco1)cn2[C@@H]1S[C@H](CO)[C@@H](O)[C@H]1O", "Target Or Test System": "UniProtKB Q9Y463", "pKi": 7.85}
{"Molecule": "COc1ncc2cc(C(=O)Nc3cc(C(=O)NCc4cccc(Cl)c4)ccc3Cl)c(=O)[nH]c2n1 [TC-S 7004, reference compound]", "Target Or Test System": "UniProtKB Q9Y463", "pKi": 7.66}
